Tested on: LZK;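 also: KINOMEscan kinase panel screen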
Construct: gene MAP3K13
Conditions: concentration: 1 μM, replicates: in singlicate; n = 1
quantity.measured: %Inh (%)

> print(dat)
                              record.smiles  unit  endpoint.result
1  Cc1cc(-c2ccnc(Nc3cccc(C#N)c3)n2)cc(C)c1O     %                0
2  Nc1ncnc2scc(-c3ccc(NC(=O)Cc4cc(F)ccc4F)cc3)c12.O=C(O)C(F)(F)F     %                0
3  O=C(Nc1n[nH]c2nc(-c3cccc(O)c3)ccc12)C1CC1     %                0
4  Cc1ccc(NC(=O)c2cccc(N3CCCCC3)c2)cc1-c1ccc(C(=O)NCC2CC2)cc1     %                0
5  Cl.O=C(Nc1ccc(Oc2ccc3[nH]c(NC(=O)c4ccco4)nc3c2)cc1)Nc1cc(C(F)(F)F)ccc1F     %                0
6  COc1cccc(NC(=O)NCCNc2ccnc(Nc3ccc(F)cc3)n2)c1     %               11
7  CSc1ccc(NC2=C(c3ccc(Cl)cc3)C(=O)NC2=O)cc1     %                0
8  O=C(O)C(F)(F)F.O=c1[nH]ccc2nc(N[C@@H]3CCNC3)nc(Nc3cc(Cl)cc(Cl)c3)c12     %                7

Sourced from paper PMC5540273
